- Tested on: Candida albicans A9540
- method.description: In vitro antifungal activity (MIC), agar dilution on yeast morphology agar
- Format: cell-based
- run.conditions: YMA, 0.06M phosphate (pH 7.0), 28°C, 40 hours, read-out: MIC Ca-4
- Method: The in vitro antifungal activity (MIC) of the compounds of the invention was determined on yeast morphology agar (YMA, Difco Laboratories, USA), buffered with 0.06M phosphate (pH 7.0). Nine parts of molten agar were combined with one part of antibiotic dilution in petri dishes. A 5-µl suspension containing 2x10⁶ cells/ml was spotted on the surface of the agar plates. The plates were incubated at 28°C and MICs were recorded after 40 hours of the incubation. […]
reported.property: MIC (µg/mL)
Reply numerically in µg/mL, unit not repeated.

Example entries begin here.
compound	unit.info	MIC
C=CCOc1cc(O)c2c(c1)C(=O)c1c(cc3c(c1O)-c1c(cc(C)c(C(=O)NCC(=O)O)c1O)[C@H](O[C@@H]1O[C@H](C)[C@H](O)[C@H](O[C@@H]4OC[C@@H](O)[C@H](O)[C@H]4O)[C@H]1O)[C@H]3O)C2=O [IIC, 11-O-Allyl-11-O-dexylosylpradimicin T1]	µg/mL	6.3
CNC1C(C)OC(OC2c3cc(C)c(C(=O)NC(C)C(=O)O)c(O)c3-c3c(cc4c(c3O)C(=O)c3cccc(O)c3C4=O)C2O)C(O)C1OC1OCC(O)C(O)C1O (stereo not drawn) [IIG, 11-Demethoxypradimicin A]	µg/mL	6.3

Here is the next item to consider.
Which MIC reading was recorded for the compound Cc1cc2c(c(O)c1C(=O)NC(C)C(=O)O)-c1c(cc3c(c1O)C(=O)c1cc(O)cc(O)c1C3=O)C(O)C2OC1OC(C)C(N)C(OC2OCC(O)C(O)C2O)C1O (stereo not drawn) [IC, 11-O-Demethylpradimicin C] ?
6.3
